Values were extracted from patent US20240239801A1.

Measured IC50 values are reported for all entries that follow.
- targetSystem: CRAF (Homo sapiens, UniProt P04049)
- Sequence (P04049 whole entry): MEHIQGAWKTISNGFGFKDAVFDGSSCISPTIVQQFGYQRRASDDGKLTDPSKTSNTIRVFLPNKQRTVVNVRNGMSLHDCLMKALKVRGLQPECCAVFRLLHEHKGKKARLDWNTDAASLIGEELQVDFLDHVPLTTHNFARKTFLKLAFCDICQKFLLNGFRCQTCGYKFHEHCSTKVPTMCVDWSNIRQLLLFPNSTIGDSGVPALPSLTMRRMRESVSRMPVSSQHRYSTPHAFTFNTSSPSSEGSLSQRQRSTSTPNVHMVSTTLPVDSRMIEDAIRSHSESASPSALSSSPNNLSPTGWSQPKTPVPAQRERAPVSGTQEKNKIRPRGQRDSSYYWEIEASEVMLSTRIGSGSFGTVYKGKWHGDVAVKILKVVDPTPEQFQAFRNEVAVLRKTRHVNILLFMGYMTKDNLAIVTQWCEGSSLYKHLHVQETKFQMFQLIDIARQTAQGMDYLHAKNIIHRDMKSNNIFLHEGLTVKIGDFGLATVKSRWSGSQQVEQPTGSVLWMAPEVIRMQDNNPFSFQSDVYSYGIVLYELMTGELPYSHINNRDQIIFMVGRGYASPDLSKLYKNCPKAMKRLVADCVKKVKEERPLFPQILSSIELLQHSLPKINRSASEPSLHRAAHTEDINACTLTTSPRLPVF
- testSummary: CRAF kinase activity assay (ADP-Glo)
- Type: biochemical
- experimentalContext: Table 3

{"compound": "Cc1c(F)cccc1S(=O)(=O)Nc1ccc(F)c(Nc2ncnc3cnc(-n4nnc5ccccc54)nc23)c1F [Example 121]", "IC50": "< 10 nM"}
{"compound": "Nc1cccc2c1ncn2-c1ncc2ncnc(Nc3c(F)ccc(NS(=O)(=O)c4cccc(Cl)c4Cl)c3F)c2n1 [Example 80]", "IC50": "< 10 nM"}
{"compound": "O=S(=O)(Nc1ccc(F)c(Nc2ncnc3cnc(-n4cnc5ccccc54)nc23)c1F)c1cccc2c1OC(F)(F)O2 [Example 150]", "IC50": "10 to 50 nM"}
{"compound": "O=S(=O)(Nc1ccc(F)c(Nc2ncnc3cnc(-n4cnc5c(N6CC(CCO)C6)cccc54)nc23)c1F)c1cccc(Cl)c1Cl [Example 147]", "IC50": "10 to 50 nM"}
{"compound": "O=S(=O)(Nc1ccc(F)c(Nc2ncnc3cnc(-n4cnc5ccccc54)nc23)c1F)c1scc(Cl)c1Cl [Example 157]", "IC50": "< 10 nM"}
{"compound": "CCC1(O)CCN(c2cccc3c2ncn3-c2ncc3ncnc(Nc4c(F)ccc(NS(=O)(=O)c5cccc(Cl)c5Cl)c4F)c3n2)CC1 [Example 133]", "IC50": "< 10 nM"}
{"compound": "CN(C)C1CCN(c2cccc3c2ncn3-c2ncc3ncnc(Nc4c(F)ccc(NS(=O)(=O)c5cccc(Cl)c5Cl)c4F)c3n2)CC1 [Example 145]", "IC50": "< 10 nM"}
{"compound": "CCC1(O)CCN(c2cccc3c2ncn3-c2ncc3ncnc(Nc4c(F)ccc(NS(=O)(=O)c5cccc(C)c5Cl)c4F)c3n2)CC1 [Example 153]", "IC50": "10 to 50 nM"}
{"compound": "Cc1c(F)cccc1S(=O)(=O)Nc1ccc(F)c(Nc2ncnc3cnc(-n4nc(C(=O)N5CCC(O)CC5)c5ccccc54)nc23)c1F [Example 108]", "IC50": "10 to 50 nM"}
{"compound": "Cc1c(F)cccc1S(=O)(=O)Nc1ccc(F)c(Nc2ncnc3cnc(-n4cc(S(=O)(=O)N5CCN(C)CC5)c5ccccc54)nc23)c1F [Example 96]", "IC50": "< 10 nM"}
{"compound": "Cc1c(Cl)cccc1S(=O)(=O)Nc1ccc(F)c(Nc2ncnc3cnc(-n4cnc5ccccc54)nc23)c1F [Example 127]", "IC50": "< 10 nM"}
{"compound": "Cc1c(F)cccc1S(=O)(=O)Nc1ccc(F)c(Nc2ncnc3cnc(-n4cnc5c(-c6cccnc6)cccc54)nc23)c1F [Example 114]", "IC50": "10 to 50 nM"}
{"compound": "CCS(=O)(=O)c1cn(-c2ncc3ncnc(Nc4c(F)ccc(NS(=O)(=O)c5cccc(Cl)c5Cl)c4F)c3n2)c2ccccc12 [Example 141]", "IC50": "10 to 50 nM"}
